Entry source: PubChem BioAssay

composite z-score reference
molecular target: Follistatin-related protein 3 (Homo sapiens) (UniProt O95633); assay: FSTL3 binders on small-molecule microarrays, primary screen, biochemical, small-molecule microarray, 635 nm fluorescence (AID 1105); settings: FSTL3 binding, higher = more signal;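 also: score merges emission near 667 nm and signal to noise per printed spot across three slides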
Sequence (O95633 whole entry, looked up): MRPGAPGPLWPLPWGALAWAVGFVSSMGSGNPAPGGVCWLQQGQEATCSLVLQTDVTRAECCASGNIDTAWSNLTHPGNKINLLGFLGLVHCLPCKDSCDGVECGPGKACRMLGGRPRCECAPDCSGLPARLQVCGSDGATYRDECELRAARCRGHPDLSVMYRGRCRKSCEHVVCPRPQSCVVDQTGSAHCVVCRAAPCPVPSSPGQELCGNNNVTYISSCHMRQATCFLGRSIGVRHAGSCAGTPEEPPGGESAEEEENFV
// return a plain number; no unit text

Consider the reported composite z-score for these compounds:
// `CCCN1C(=O)[C@]2(CCS(=O)(=O)c3ccccc3)N=C(c3ccc(OCCCO)cc3)O[C@@H]2c2ccccc21` : composite z-score value = 1.05

For reference, reported composite z-score for `C=C(COC)/C(=C/C[C@@H](OC(C)=O)c1ccc(CO)o1)c1cnc2ccccc2c1` stands at 1.5

Form: compound = `CC(=O)NCCCC[C@@H]1NC(=O)[C@@H]2C[C@H](C(=O)NCCCCCCNC(=O)CS)[C@H](c3cccc(OCCO)c3)N2C1=O` ; composite z-score = 0.325

Measured composite z-score of `C=CCOC(=O)[C@@H]1[C@H]2C(=O)O[C@H](c3ccccc3)[C@H](c3ccccc3)N2[C@H](c2ccc(OCCOC(=O)[C@@H]3C[C@@H]4C(=O)N[C@@H](Cc5ccccc5)C(=O)N4[C@@H]3c3ccc(O)cc3)cc2)[C@@]12C(=O)Nc1ccc(I)cc12` : 1.38

For this compound ( CC1CC/C=C\[C@H]2OC34C=CCN(Cn5nnc6ccccc65)C(=O)[C@H]3N(C(CO)C(C)C)C(=O)[C@@H]4C2C(=O)O1 (some centres not stated) ), measured composite z-score is -0.551

***
The compound [N-]=[N+]=Nc1ccccc1C[C@]1(C(=O)NCC(O)CO)N=C(c2ccc(OCCCO)cc2)O[C@H]1c1ccccc1N=[N+]=[N-] (some centres not stated) showed composite z-score equal to -0.736

So for `CCCC=C(CCC)[C@@H](NS(=O)(=O)c1cccs1)c1ccc(C(=O)OC)cc1` , the logged composite z-score turned out to be 0.622
